- Tested Target: Recombinant cyno B7-H3 (cyno)
- Assay Notes: SPR (such as Biacore T200), against cyno B7-H3
Measured Quantity: koff (s⁻¹)
Answers are plain numbers, in s⁻¹.

Take a look at these entries with their results.
- SCT-Da192 (antibody, V domains shown) VH: EVQLQQSGPELVKPGASVKISCKTSGYTFTEYTMHWVKQSHGKSLEWIGVINPNNGGTTYNQKFKGKATLTVDKSSSTAYMELRSLTSEDSAVYYCARPHSLLRLRREFDYWGQGTTLTVSS VL: QIVLTQSPALMSASPGEKVTMTCSASSSVSYMYWYQQKPRSSPKPWIYLTSNLASGVPARFSGSGSGTSYSLTISSMEAEDAATYYCQQWSSNPLTFGAGTKLELK: 0.000505
- SCT-Da148 (antibody, V domains shown) VH: EVQLQQSGAELVKPGASVKLSCTASGVNIKDTYIHWVKQRPEQGLEWIGRIDPANGNRKYDPKFQGKATITADSSSNTAYLQLSSLTSEDTAVYYCARDGYYAPGYWGQGTTLTVSS VL: DIVMTQSQKFMSTSVGDRVSVTCKASQNVGTDVAWYQQKPGQSPKLLIYSASYRFSGVPDRFTGSGSGTDFSLAISNVQSEDLAEYFCQQYNSYPYTFGGGAKLEIK: 0.000368
- SCT-Da182 (antibody, V domains shown) VH: EVQLQQSGPELVKPGASMKISCKVSGFSFTGYTMNWVKQSHGKNLEWIGLINTYNGGTFYNQKFKAKATLTVDKSSSTAHMELLSLTSEDSAVYYCARSPGRYSMDYWGQGTSVTVSS VL: DIVLTQSPASLAVSLGQRATISCKASQSVDYNGYSYLNWYQQKPGQPPKLLIYPASNLESGIPARFSGSGSGTDFTLNIHPVEEEDAATYYCQQSKEDPYTFGGGTKLEIK: 0.000283

# next binder below
Query: What does the data say about its koff? Entry: SCT-Da250 (antibody, V domains shown) VH: QGQMQQSGAELVKPGASVRLSCKTSGFTFSSFYISWLKQKPGQSLEWIAWIYAGPGYTSYNQKFTGKAQLTVDTSSSTAYMQFSSLTTEDSAIYYCARHVGRQRGYFDVWGAGTTVTVSS VL: DIVMTQSHKFMSTSVGDRVSITCKASQDVSTAVAWYQQKPGQSPKLLIYSASYRYTGVPDHFTVSGSGTDFTFTISSVQAEDLAVYYCQQHYSTPWTFGGGTKLEIK
Reply: 0.000361

Data origin, for the record: patent US20220235134A1
